// note: pKi values for Matrix metalloproteinase-14 (Homo sapiens) were reported in different studies
Expect pKi as a plain number equal to -log10 of the molar concentration.

NC(=O)C(Cc1c[nH]c2ccccc12)NC(=O)C(CCc1ccc2ccccc2c1)CP(=O)(O)C(Cc1ccccc1)NC(=O)OCc1ccccc1 (centres undefined) | 6.90

Record CC(C)C[C@H]1C(=O)N[C@H](C(=O)NCC(=O)N2CCOCC2)CCCCNC(=O)OCCC[C@@H]1C(=O)NO / Matrix metalloproteinase-14 (Homo sapiens), pKi recorded as 6.85

Record C[C@H](NC(=O)C(=O)NO)C(=O)N[C@@H](C)c1ccccc1 / Matrix metalloproteinase-14 (Homo sapiens), pKi recorded as 3.74

Record O=S(=O)(N[C@@H]1CCC[C@@H]1S)c1ccc(Oc2ccccc2)cc1 / Matrix metalloproteinase-14 (Homo sapiens), pKi recorded as 4.60

Record O=S(=O)(CCC(S)CS)c1ccc(Oc2ccccc2)cc1 (centres undefined) / Matrix metalloproteinase-14 (Homo sapiens), pKi recorded as 6.68
